- SYSTEM NAME: Cytochrome P450 1A2 (Homo sapiens, UniProt P05177);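 note: PubChem cytochrome P450 panel assay, CYP1A2 panel member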
- Sequence (P05177 whole entry): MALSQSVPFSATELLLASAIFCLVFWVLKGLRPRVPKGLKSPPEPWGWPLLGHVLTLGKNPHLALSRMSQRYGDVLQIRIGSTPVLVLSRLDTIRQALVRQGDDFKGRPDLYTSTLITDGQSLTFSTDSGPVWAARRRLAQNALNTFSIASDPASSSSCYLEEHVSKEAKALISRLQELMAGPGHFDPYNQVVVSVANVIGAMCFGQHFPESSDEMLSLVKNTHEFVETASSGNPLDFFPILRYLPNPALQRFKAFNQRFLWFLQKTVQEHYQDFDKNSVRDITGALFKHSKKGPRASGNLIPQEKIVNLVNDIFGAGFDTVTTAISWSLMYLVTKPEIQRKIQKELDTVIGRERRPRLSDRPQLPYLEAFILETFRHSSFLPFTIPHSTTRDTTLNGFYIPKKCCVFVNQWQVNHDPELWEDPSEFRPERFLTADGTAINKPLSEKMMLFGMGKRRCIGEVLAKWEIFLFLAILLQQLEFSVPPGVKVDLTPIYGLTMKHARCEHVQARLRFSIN
EXPERIMENTAL ENDPOINT: AC50

# INPUT SMILES, EXPERIMENTAL ENDPOINT, DATA VALUE
records = [
    ("Cc1cccc(C)c1NC(=S)NC(=O)CCc1ccccc1", "AC50", "22.4 µM (inconclusive)"),
    ("N=C(N)NCc1cccc(I)c1", "AC50", "12.6 µM (inconclusive)"),
    ("COc1cccc(Cn2c(=O)c(-c3cccs3)nc3cnc(Nc4cccc(OC)c4)nc32)c1", "AC50", "2.51 µM (inconclusive)"),
    ("C=CCNC(S)=NNc1ncnc2sc3c(c12)CC(C)(C)OC3", "AC50", "12.6 µM (inconclusive)"),
    ("O=C(CCc1ccccc1)NNC(=S)NC(=O)c1ccccc1", "AC50", "14.1 µM (inconclusive)"),
    ("COc1ccc(-n2c(=O)c(-c3cccs3)nc3cnc(Nc4ccccc4)nc32)cc1", "AC50", "31.6 µM (inconclusive)"),
    ("Cc1ccc(COc2coc(CO)cc2=O)cc1", "AC50", "15.8 µM (inconclusive)"),
]

Task item: Send back Cytochrome P450 1A2 (Homo sapiens, UniProt P05177) AC50 of CN1CCN(c2ncc3nc(-c4cc(F)cc(F)c4)c(=O)n(CCC#N)c3n2)CC1 only.
Reply: 15.8 µM (inconclusive)

Value source: ChEMBL document CHEMBL1201862
